Data credit: ChEMBL document CHEMBL5291721

Recorded AC50 values (D(3) dopamine receptor (Homo sapiens, UniProt P35462)) are given below.

Below, each entry is followed by its recorded AC50 result.
MOLECULE	PROPERTY LABEL	OBS VALUE
O=C(CCNNC(=O)c1ccncc1)NCc1ccccc1 [NIALAMIDE]	AC50	> 30 µM
CCc1oc2ccccc2c1C(=O)c1cc(I)c(O)c(I)c1 [BENZIODARONE]	AC50	8.59 µM
O=c1[nH]c(=O)n([C@H]2C[C@H](O)[C@@H](CO)O2)cc1F [FLOXURIDINE]	AC50	> 30 µM
CC(C)(C)C(=O)OCOC(=O)[C@@H]1N2C(=O)[C@@H](NC(=O)[C@H](N)c3ccccc3)[C@H]2SC1(C)C [PIVAMPICILLIN]	AC50	> 30 µM

IN: System D(3) dopamine receptor (Homo sapiens, UniProt P35462). Read-out AC50. Item Cc1cc(NS(=O)(=O)c2ccc(N)cc2)nc(C)n1 [SULFISOMIDINE] . Report value. Also: assay procedure not described here.
OUT: > 30 µM
